Each entry below carries its recorded Kd.
Measurement Target: T1, Human FRα ECD-Avi-His (human, biotin on the Avi-tag (BirA) in the HTRF assays)
T1 construct: also called biotinylated human FRα; folate receptor alpha
T1 sequence (chain, as listed by the source limits assumed): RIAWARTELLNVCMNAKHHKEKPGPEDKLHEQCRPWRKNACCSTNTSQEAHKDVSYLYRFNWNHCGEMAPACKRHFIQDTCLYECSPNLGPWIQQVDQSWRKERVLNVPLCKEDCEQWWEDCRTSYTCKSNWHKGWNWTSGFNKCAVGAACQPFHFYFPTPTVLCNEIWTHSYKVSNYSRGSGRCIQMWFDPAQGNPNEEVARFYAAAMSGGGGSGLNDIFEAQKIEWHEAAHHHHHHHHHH
Method Description: SPR (Biacore T200, 25°C); antibody captured on Protein A, FRα ECD as analyte
Don't forget the unit after the value.

Give the measured Kd of AB1370083 hIgG1 (antibody, V domains shown) VH: EVQLVESGGGLVKPGGSLRLSCAASGFTFSSYNMNWVRQAPGKGLEWVSSISSGSSYIYYADSMKGRFTISRDNAKNSLFLQMNSLRAEDTAVYYCARGMTTLTFDYWGQGTLVTVSS VL: DIQMTQSPSSLSASVGDRVTITCRASQGISTFLAWFQQKPGKAPKSLIYAASSLQSGVPSKFSGSGSETDFTLTISSLQPEDFATYYCQQYISYPLTFGGGTKVEIKR . 0.93 nM

Give the measured Kd of AB1370095 hIgG1 (antibody, V domains shown) VH: EVQLVESGGGLVKPGGSLRLSCAASGFTFSSYSMNWVRQAPGKGLEWVSSISSRSSYVYYADSVKGRFTISRDNAKNSLYLQMNSLRAEDTAVYYCARGMTTLTFDYWGQGTLVTVSS VL: DIQMTQSPSSLSASVGDRVTITCRASQGISSFLAWFQQKPGKAPKSLIYAASSLQSGVPSKFSGSGSGTDFTLTISSLQPEDFATYYCQQYNSYPLTFGGGTKVEIKR . 13.5 nM

Continuing:
Give the measured Kd of AB1370035 hIgG1 (antibody, V domains shown) VH: QVQLQQSGPGLVKPSQTLSLTCAISGDSVSSNSAAWNWIRQSPSRGLEWLGRTYYRSNWYNDYTLSVKSRITVNPDTSKNQFSLQLNSVTPEDTAVYYCVRGVGRFDSWGQGTLVTVSS VL: DIQMTQSPSTLSASVGDRVIITCRASQSISSWLAWYQQKPGKAPKLLIYKASSLESGVPSRFSGSGSGTEFTLTITSLQPDDFASYYCQEYKTYSIFTFGPGTKVDIKR . 0.93 nM

Give the measured Kd of AB1370026 hIgG1 (antibody, V domains shown) VH: EVQLVESGGGLVKPGGSLRLSCAASGFTFSSYAMSWVRQAPGKGLEWVSSISSGRSYIYYADSVKGRFTISRDNAKNSLYLKMNSLRDEDTAVYYCAREMQQLALDYWGQGTLVTVSS VL: DIQMTQSPSSLSASVGDRVTITCRASQGISNFLAWFQQAPGKAPKSLIYAASSLQSGVPSKFSGSGSGTDFTLTISSLQPEDFATYYCQQYNSYPFTFGQGTKLEIKR . 1.3 nM

Where these numbers come from: patent US20230295293A1
